- system: human PAH with the R408W mutation (A375 R408W cells) (Homo sapiens, UniProt P00439, R408W)
- Construct: expressed in transfected cells
- assay summary: Cell Based Phenylalanine Flux Assay
- particulars: A375 R408W cells; 24 hrs with compound, then 20 μM sepiapterin and 800 μM 13C9,15N-Phenylalanine for 4 hours; 13C-Tyrosine by LC-MS; average where tested multiple times
quantity measured: AC50

Bench note: what AC50 did Cc1ccc(C)c2oc([C@@H]3c4nc[nH]c4CCN3C(=O)c3oc(C(C)(C)O)nc3C(F)F)nc12 [Example 659] show?
≤ 0.5 µM

###

Below, each entry is listed alongside its reported AC50.
- system: human PAH with the R408W mutation (A375 R408W cells) (Homo sapiens, UniProt P00439, R408W)
- Construct: expressed in transfected cells
- Sequence (P00439 1-452 R408W): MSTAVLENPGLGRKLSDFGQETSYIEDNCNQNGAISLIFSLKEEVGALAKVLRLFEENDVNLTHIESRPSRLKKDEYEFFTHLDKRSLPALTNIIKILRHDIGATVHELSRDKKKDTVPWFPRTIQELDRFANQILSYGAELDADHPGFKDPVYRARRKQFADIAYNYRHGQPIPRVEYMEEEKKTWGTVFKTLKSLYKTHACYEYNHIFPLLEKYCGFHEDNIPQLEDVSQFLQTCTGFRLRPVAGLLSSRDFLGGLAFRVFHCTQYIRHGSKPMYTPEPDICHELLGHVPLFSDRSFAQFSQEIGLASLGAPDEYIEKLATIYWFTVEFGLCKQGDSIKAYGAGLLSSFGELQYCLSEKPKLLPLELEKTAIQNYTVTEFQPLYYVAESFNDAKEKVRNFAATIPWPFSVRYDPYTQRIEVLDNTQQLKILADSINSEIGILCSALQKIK
- assay summary: Cell Based Phenylalanine Flux Assay
- particulars: A375 cells expressing R408W PAH; 24 hrs with compound, then 20 μM sepiapterin and 800 μM 13C9,15N-Phenylalanine for 4 hours; 13C-Tyrosine by LC-MS; average where tested multiple times

Would you please look over these solved cases?
Param readout = AC50; param system = human PAH with the R408W mutation (A375 R408W cells) (Homo sapiens, UniProt P00439, R408W); param query = O=C(c1nnc(-c2c[nH]nc2C(F)(F)F)o1)N1CCc2[nH]cnc2C1c1nc2cc(F)ccc2o1 (stereo not drawn) ; response: value
1 to 5 µM

Same for Cc1n[nH]cc1-c1nnc(C(=O)N2CCc3[nH]cnc3C2c2nc3cc(F)ccc3o2)o1 (stereo not drawn)
1 to 5 µM

Same for Cn1ccc(C(=O)N2CCc3[nH]cnc3C2c2nc3cc(F)ccc3o2)n1 (stereo not drawn)
≥ 5 µM

More entries:
Param readout = AC50; param system = human PAH with the R408W mutation (A375 R408W cells) (Homo sapiens, UniProt P00439, R408W); param query = Cc1ccc2nc(C3c4nc[nH]c4CCN3C(=O)c3ocnc3C#N)oc2c1 (stereo not drawn) ; response: value
≥ 5 µM

Same for O=C(c1nnc(-c2ccccn2)o1)N1CCc2[nH]cnc2C1c1nc2cc(C(F)(F)F)ccc2o1 (stereo not drawn)
1 to 5 µM

Same for Cc1nc(-c2cnn(C)c2)oc1C(=O)N1CCc2[nH]cnc2C1c1nc2cc(F)ccc2o1 (stereo not drawn)
≥ 5 µM

Same for O=C(c1ccn(CC(F)F)n1)N1CCc2[nH]cnc2C1c1nc2ccccc2o1 (stereo not drawn)
1 to 5 µM

Same for Cn1nc(C(F)F)nc1C(=O)N1CCc2[nH]cnc2C1c1nc2c(F)c(F)ccc2o1 (stereo not drawn)
1 to 5 µM

Same for Cc1ccc2nc(C3c4nc[nH]c4CCN3C(=O)c3nnc(C(C)(C)O)o3)oc2c1 (stereo not drawn)
≥ 5 µM

###

- system: human PAH with the R408W mutation (A375 R408W cells) (Homo sapiens, UniProt P00439, R408W)
- Construct: expressed in transfected cells
- assay summary: Cell Based Phenylalanine Flux Assay
- particulars: A375 R408W cells; 24 hrs with compound, then 20 μM sepiapterin and 800 μM 13C9,15N-Phenylalanine for 4 hours; 13C-Tyrosine by LC-MS; average where tested multiple times
quantity measured: AC50

Would you please look over these solved cases?
Bench note: what AC50 did Cc1ccc2oc([C@H]3c4nc[nH]c4CCN3C(=O)c3oc(C(C)(C)O)nc3Br)nc2c1 [Example 408] show?
500 to 1000 nM

Same for Cc1cc(F)cc2nc([C@@H]3c4nc[nH]c4CCN3C(=O)c3oc(C(C)(C)O)nc3C(F)F)oc12 [Example 655]
≤ 500 nM

Same for CC(C)(CO)c1nc(C(F)F)c(C(=O)N2CCc3[nH]cnc3[C@H]2c2nc3cc(F)ccc3o2)o1 [Example 824]
≤ 500 nM

Same for O=C(c1cnn2cc(-c3ccccn3)ccc12)N1CCc2[nH]cnc2[C@H]1c1nc2c(F)cccc2o1 [Example 543]
≤ 500 nM

More entries:
Bench note: what AC50 did Cn1cc(-c2nnc(C(=O)N3CCc4[nH]cnc4[C@@H]3c3nc4cccc(F)c4o3)o2)cn1 [Example 192] show?
1000 to 5000 nM

Same for Cn1ccc(-c2nc(C(F)(F)F)c(C(=O)N3CCc4[nH]cnc4[C@H]3c3nc4cc(F)ccc4o3)o2)n1 [Example 787]
≤ 500 nM

Same for O=C(c1nnc(-c2ccccn2)o1)N1CCc2[nH]cnc2[C@@H]1c1nc2cc(F)cc(F)c2o1 [Example 579]
≤ 500 nM

Same for COc1ccc2oc([C@@H]3c4nc[nH]c4CCN3C(=O)c3ocnc3C(F)F)nc2c1 [Example 341]
≤ 500 nM

Same for FC(F)(F)c1cnc(N2Cc3[nH]cnc3[C@H]2c2nc3ccccc3o2)nc1 [Example 949]
1000 to 5000 nM

Same for O=C(c1nnc(-c2ncccc2F)o1)N1CCc2[nH]cnc2[C@@H]1c1nc2c(F)ccc(F)c2o1 [Example 799]
500 to 1000 nM

Same for O=C(c1nnc(-c2ccccn2)o1)N1CCc2[nH]cnc2[C@@H]1c1nc2ccccc2o1 [Example 584]
1000 to 5000 nM

Same for O=C(c1cccnc1)N1Cc2[nH]cnc2[C@H]1c1nc2ccccc2o1 [Example 927]
≥ 5000 nM

Same for O=C(c1nnc(-c2cnn(C3CCC3)c2)o1)N1CCc2[nH]cnc2[C@H]1c1nc2c(F)ccc(F)c2o1 [Example 811]
≤ 500 nM

Same for Cn1nc(Cl)cc1C(=O)N1CCc2[nH]cnc2[C@@H]1c1nc2cc(F)ccc2o1 [Example 128]
1000 to 5000 nM

Same for O=C(c1ccnn1C1CC1)N1CCc2[nH]cnc2[C@H]1c1nc2cccc(F)c2o1 [Example 727]
500 to 1000 nM

Same for Cc1nc([C@@H](C)O)oc1C(=O)N1CCc2[nH]cnc2[C@@H]1c1nc2cc(F)ccc2o1 [Example 136]
≥ 5000 nM

###

- system: human PAH with the R408W mutation (A375 R408W cells) (Homo sapiens, UniProt P00439, R408W)
- Construct: expressed in transfected cells
- Sequence (P00439 1-452 R408W): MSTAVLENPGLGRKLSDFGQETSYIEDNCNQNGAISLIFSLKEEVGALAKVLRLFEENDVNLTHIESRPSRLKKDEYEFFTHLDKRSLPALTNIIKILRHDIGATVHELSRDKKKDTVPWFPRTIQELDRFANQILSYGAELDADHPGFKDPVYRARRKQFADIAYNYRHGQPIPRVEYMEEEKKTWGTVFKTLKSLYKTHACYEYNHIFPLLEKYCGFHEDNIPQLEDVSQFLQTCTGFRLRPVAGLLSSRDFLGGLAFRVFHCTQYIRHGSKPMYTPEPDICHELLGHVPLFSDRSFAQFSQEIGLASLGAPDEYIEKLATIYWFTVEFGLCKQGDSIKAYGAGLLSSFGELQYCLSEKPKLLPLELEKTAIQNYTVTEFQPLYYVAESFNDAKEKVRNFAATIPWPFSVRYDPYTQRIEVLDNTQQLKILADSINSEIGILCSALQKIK
- assay summary: Cell Based Phenylalanine Flux Assay
- particulars: A375 R408W cells; 24 hrs with compound, then 20 μM sepiapterin and 800 μM 13C9,15N-Phenylalanine for 4 hours; 13C-Tyrosine by LC-MS; average where tested multiple times
quantity measured: AC50

Would you please look over these solved cases?
Param readout = AC50; param system = human PAH with the R408W mutation (A375 R408W cells) (Homo sapiens, UniProt P00439, R408W); param query = Cc1cccc2nc([C@@H]3c4nc[nH]c4CCN3C(=O)c3nnc(-c4ccn(C)n4)o3)oc12 [Example 869] ; response: value
≤ 500 nM

Same for Cn1cc(C(=O)N2CCc3[nH]cnc3[C@@H]2c2nc3cc(F)ccc3o2)c(C(F)F)n1 [Example 96]
1000 to 5000 nM

Same for [2H]C([2H])([2H])OCc1nc(C(F)F)c(C(=O)N2CCc3[nH]cnc3[C@H]2c2nc3cc(F)ccc3o2)o1 [Example 155]
≤ 500 nM

Same for CC(C)(O)c1nc(C(F)F)c(C(=O)N2CCc3[nH]cnc3[C@@H]2c2nc3cc(Cl)ccc3o2)o1 [Example 376]
1000 to 5000 nM

Same for CC(O)c1nc(Br)c(C(=O)N2CCc3[nH]cnc3[C@H]2c2nc3cc(F)ccc3o2)o1 (single isomer, unassigned) [Example 225]
1000 to 5000 nM

Same for CC(C)(O)c1nc(C(F)F)c(C(=O)N2CCc3[nH]cnc3[C@H]2c2nc3cc(Br)ccc3o2)o1 [Example 415]
500 to 1000 nM

Same for Cc1nn(C)cc1-c1nnc(C(=O)N2CCc3[nH]cnc3[C@H]2c2nc3cc(F)ccc3o2)o1 [Example 881]
1000 to 5000 nM

Same for CC(C)n1nccc1C(=O)N1CCc2[nH]cnc2[C@H]1c1nc2ccccc2o1 [Example 752]
≤ 500 nM

Same for O=C(c1nnc(-c2ccccn2)o1)N1Cc2[nH]cnc2[C@H]1c1nc2ccccc2o1 [Example 937]
1000 to 5000 nM

Same for O=C(c1ccnn1C(F)F)N1CCc2[nH]cnc2[C@@H]1c1nc2c(F)cc(F)cc2o1 [Example 490]
1000 to 5000 nM

More entries:
Param readout = AC50; param system = human PAH with the R408W mutation (A375 R408W cells) (Homo sapiens, UniProt P00439, R408W); param query = Cc1cc(C(=O)N2CCc3[nH]cnc3[C@@H]2c2nc3cccc(C)c3o2)n(C)n1 [Example 782] ; response: value
500 to 1000 nM

Same for Cn1cncc1-c1nc(C(F)F)c(C(=O)N2CCc3[nH]cnc3[C@H]2c2nc3cccc(F)c3o2)o1 [Example 692]
≤ 500 nM
